- Tested on: K4 kissing-loop RNA reporter;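 also: bound reporter read as fluorescence of individual clusters on recovered sequencing chips by microscopy, with normalized cluster intensities fitted with a binding model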
- TEST PROTOCOL: apparent KD of K4 kissing-loop reporter; higher = weaker reporter binding
- APPLIED CONDITIONS: Eterna round: R107; input ligand: FMN 200 uM
Tick rule met if apparent KD of K4 kissing-loop reporter is 90 nM or greater. Tick rule not met if apparent KD of K4 kissing-loop reporter is less than 90 nM.

**Query** Given the entry CGAAAUAGAACGGCCGCCACUGUAAGUCCUGACAGUAAGUGAUGUUUGAAAGAUUCGGGUAUUCGCAGGACCGGGUUCGUCAUAA [theeternabot_sameState_KL_Trp_B_13] , answer whether its apparent KD of K4 kissing-loop reporter meets or surpasses 90 nM.
**Result** rule met

**Query** Given the entry "AAAAUAAGCCAGUGAUGUUGGUACCCAGAUACCAGCGACGAAAGUCGCCCUUGGCAGCUGUGGACGUACAAAAUAAGUACGUCCU" , answer whether its apparent KD of K4 kissing-loop reporter meets or surpasses 90 nM.
**Result** rule met

**Query** Given the entry AAGAGGUAGGCGGCCGCCACUAGUUGUGAACACAUACGAGCCAGUGAUGUUGGUAUUGUGGGCGGUAGGACCGGGCCUACCUGAA [Exclusion - Tryptophan B (Freestyle 19)] , answer whether its apparent KD of K4 kissing-loop reporter meets or surpasses 90 nM.
**Result** rule met

**Query** Given the entry "GGUAGCAUGGCGGCCGCCACUAAUACUUCGUAGCCUGUAGCCGGCUUCGUAGAGUGAUGUUCUAUUAGGACCGGGCCAUGCUACC" , answer whether its apparent KD of K4 kissing-loop reporter meets or surpasses 90 nM.
**Result** rule met

**Query** Given the entry AGAGUUGACGAAAAGUCAACUCUACGAGAAGGAGCGCACGAAAGUGCAGGUAGGUCGCUCAGUCCAGUGAUGUUGGAACAUAAAA [#OpenEnded 8] , answer whether its apparent KD of K4 kissing-loop reporter meets or surpasses 90 nM.
**Result** rule not met

The values you see were collected from the supplement of paper PMC9170038.
